Value source: paper PMC5700166

target: GST-Hu-p50 (Homo sapiens, UniProt P19838 7-356); assay: protein-binding microarray (PBM); PBM: ~300 nM protein, 6 mM HEPES pH 7.8, 80 mM KCl, 0.5 mM EDTA, 0.5 mM EGTA, 6% glycerol, 35 ng/ul poly-dIdC, 1% milk, 1 h, room temperature; Ap Aiptasia and Nv Nematostella (sea anemones) / Co Capsaspora / Aq Amphimedon (sponge) / Dm Drosophila / Hu human; RHD is the Rel homology domain; high values mean tight binding; conditions: dsDNA, one strand shown
Sequence (P19838 7-356): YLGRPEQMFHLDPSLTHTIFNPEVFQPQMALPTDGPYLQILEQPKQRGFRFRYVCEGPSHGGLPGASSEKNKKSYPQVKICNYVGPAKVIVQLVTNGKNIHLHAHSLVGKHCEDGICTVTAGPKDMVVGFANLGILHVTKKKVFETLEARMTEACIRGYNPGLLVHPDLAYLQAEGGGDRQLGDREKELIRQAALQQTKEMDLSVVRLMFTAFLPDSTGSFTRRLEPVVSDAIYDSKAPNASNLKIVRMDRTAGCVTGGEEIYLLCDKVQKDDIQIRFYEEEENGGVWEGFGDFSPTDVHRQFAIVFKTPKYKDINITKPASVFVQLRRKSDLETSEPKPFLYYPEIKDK
quantityName: binding signal

| constructSequence | testTarget | recordedMeasurement |
| --- | --- | --- |
| CCGATTAACATCACCGGGAATTCTGATGTTAATCGGGTCTTGATTCGCTTGACGCTGCTG | GST-Hu-p50 (Homo sapiens, UniProt P19838 7-356) | 4.01 z-score |
| CCGATTAACATCAGGGGAACTTATGATGTTAATCGGGTCTTGATTCGCTTGACGCTGCTG | GST-Hu-p50 (Homo sapiens, UniProt P19838 7-356) | 5.95 z-score |
| CCGATTAACATCACCCCGTCCCCTGATGTTAATCGGGTCTTGATTCGCTTGACGCTGCTG | GST-Hu-p50 (Homo sapiens, UniProt P19838 7-356) | 3.21 z-score |
| CCGATTAACATCAAGAGATTCCCTGATGTTAATCGGGTCTTGATTCGCTTGACGCTGCTG | GST-Hu-p50 (Homo sapiens, UniProt P19838 7-356) | 2.78 z-score |
| CCGATTAACATCACTAAATCCCCTGATGTTAATCGGGTCTTGATTCGCTTGACGCTGCTG | GST-Hu-p50 (Homo sapiens, UniProt P19838 7-356) | 6.6 z-score |
| CCGATTAACATCAGGGGGTTTTATGATGTTAATCGGGTCTTGATTCGCTTGACGCTGCTG | GST-Hu-p50 (Homo sapiens, UniProt P19838 7-356) | 7.82 z-score |
| CCGATTAACATCAGAGTATTCCCTGATGTTAATCGGGTCTTGATTCGCTTGACGCTGCTG | GST-Hu-p50 (Homo sapiens, UniProt P19838 7-356) | 1.6 z-score |
| CCGATTAACATCAGGGAATTTGATGATGTTAATCGGGTCTTGATTCGCTTGACGCTGCTG | GST-Hu-p50 (Homo sapiens, UniProt P19838 7-356) | 3.22 z-score |
| CCGATTAACATCAAATTTCCCATTGATGTTAATCGGGTCTTGATTCGCTTGACGCTGCTG | GST-Hu-p50 (Homo sapiens, UniProt P19838 7-356) | 3.86 z-score |
